FYI, the data here is from PubChem BioAssay (NCI).

- System: EKVX NSCLC
- EXPERIMENTAL PROTOCOL: NCI-60 one-dose screen, 48 h
- CONDITION: 10 µM unless noted
Compounds without any hit were thinned out: in the full panel of roughly 83,000, 20% have a hit. Calls of active or inactive are those of the source. How the source made its calls: active means growth percent below 10; inactive means the rest.
Choose one outcome from this list and give only that: active, inactive

INSERT INTO assay_data (compound, assigned_label) VALUES
  ('COc1ccc2c(c1)C(=Nc1cc(OC)c(OC)c(OC)c1)C(=O)N2', 'inactive'),
  ('O=C1c2cc3c(cc2-c2c1c1ccc(Cl)cc1c(=O)n2CCCNCCO)OCO3', 'active'),
  ('COc1cccc(C2=NN(C(C)=O)C(c3cc(OC)c(OC)c(OC)c3)C2)c1 (configuration not stated)', 'inactive');

Answer briefly: the call reported for CCCCc1n(Cc2ccc3ccccc3c2)cc[n+]1Cc1ccc2ccccc2c1 in this assay.
inactive

Answer briefly: the call reported for O=C(O)c1ccc2cccnc2c1O in this assay.
inactive

Answer briefly: the call reported for OCCN1CCN(CCCN2c3ccccc3Sc3ccc(C(F)(F)F)cc32)CC1 in this assay.
inactive

Answer briefly: the call reported for CCOc1cc(/C=C/C(=O)CC(=O)/C=C/c2ccc(OC(=O)CNc3nc4ccc(OC)cc4s3)c(OCC)c2)ccc1OC(=O)CNc1nc2ccc(OC)cc2s1 in this assay.
inactive

----------
- Tested on: CAKI-1 renal
- EXPERIMENTAL PROTOCOL: NCI-60 one-dose screen, 48 h (100 = growth as untreated, 0 = no growth, -100 = all killed)
- CONDITION: 10 µM unless noted
- Method: Growth inhibition of the CAKI-1 human tumor cell line is measured as a screen for anti-cancer activity. Cells are grown in 96 well plates and exposed to the test compound for 48 hours. Compounds are tested at a single concentration, which is 10^-5 M for most compounds. The reported endpoint is percent growth (GI% or GIPRCNT), where numbers from 0 - 100% represent growth inhibition, and numbers from -100% - 0 represent cell death. For example, a value of 40 represents 60% growth inhibition. […]
Compounds without any hit were thinned out: in the full panel of roughly 83,000, 20% have a hit. Active and inactive are the calls of the source. The calls were made as follows: active = growth percent below 10; inactive = the rest.
MEASUREMENT KIND: growth

Some solved entries appear below for comparison.
INSERT INTO measurements (smiles_data, measurement_kind, result) VALUES
  ('C/C(=C\CCc1ccsc1)CC/C=C(\C)CCCN1CCSCC1', 'growth', '87.5% (inactive)'),
  ('COc1ccc(N2CCN(CC(=O)N3CCN(c4nnc(-c5ccccc5)c(-c5ccccc5)n4)CC3)CC2)cc1', 'growth', '76.5% (inactive)'),
  ('O=C(N/N=C/c1cccc(O)c1O)c1ccccc1', 'growth', '-20.5% (active)');

Value lookup for growth; key = COc1cc(/C=C/C(=O)CC(=O)/C=C/c2ccc(OC(=O)CCNC34CC5CC(CC(C5)C3)C4)c(OC)c2)ccc1OC(=O)CCNC12CC3CC(CC(C3)C1)C2
49.1% (inactive)

----------
- Test system: HT29 colon
- EXPERIMENTAL PROTOCOL: NCI-60 one-dose screen, 48 h (100 = growth as untreated, 0 = no growth, -100 = all killed)
- CONDITION: 10 µM unless noted
- Description: Growth inhibition of the HT29 human tumor cell line is measured as a screen for anti-cancer activity. Cells are grown in 96 well plates and exposed to the test compound for 48 hours. Compounds are tested at a single concentration, which is 10^-5 M for most compounds. The reported endpoint is percent growth (GI% or GIPRCNT), where numbers from 0 - 100% represent growth inhibition, and numbers from -100% - 0 represent cell death. For example, a value of 40 represents 60% growth inhibition. […]
About 83,000 compounds went through this panel and 20% of them were active in at least one assay; those are over-represented in the sample as a whole.
MEASUREMENT KIND: growth (%)
Numbers only, in %.

Some solved entries appear below for comparison.
INSERT INTO assay_data (compound, unit_symbol, numeric_value) VALUES
  ('CCOc1nc(-c2ccco2)n2nc(-c3ccco3)cc2n1', '%', 100),
  ('Nc1nc(SCc2cccnc2)c2ncn(C3OC(CO)C(O)C3O)c2n1 (stereo not given)', '%', 106),
  ('O=C(NCCNC(=O)Oc1cccc2ccccc12)Oc1cccc2ccccc12', '%', 108),
  ('Cc1sc2nc(NCCc3cccs3)[nH]c(=O)c2c1C', '%', 85.1);

Moving on to another compound below.
Lookup: growth / HT29 colon / COc1cc(/C=N/OC(=O)Nc2ccccc2)cc(OC)c1OC
104

----------
- Tested on: COLO 205 colon
- EXPERIMENTAL PROTOCOL: NCI-60 one-dose screen, 48 h
- CONDITION: 10 µM unless noted
About 83,000 compounds went through this panel and 20% of them were active in at least one assay; those are over-represented in the sample as a whole. Activity calls are given as the source filed them. The calls were made as follows: active = growth percent below 10; inactive = the rest.
Choose one outcome from this list and give only that: label 1 (active), label 0 (inactive)

Take a look at these entries with their results.
INSERT INTO results (compound, assigned_label) VALUES
  ('CCCCCCCCCCOC(C)=O', 'label 0'),
  ('CCOC(=O)CCC(=O)O[C@H]1[C@H](O[C@@H]2[C@@H](C)[C@H](O[C@H]3C[C@@](C)(OC)[C@@H](O)[C@H](C)O3)[C@@H](C)C(=O)O[C@H](CC)[C@@](C)(O)[C@H](O)[C@@H](C)C(=O)[C@H](C)C[C@@]2(C)O)O[C@H](C)C[C@@H]1N(C)C', 'label 0'),
  ('O=C1Nc2ccc(Cl)cc2[C@@](C#CC2CC2)(C(F)(F)F)O1', 'label 0'),
  ('CCOc1cc(/C=C/C(=O)C(C(=O)/C=C/c2ccc(OC(=O)CNc3nnc(C)s3)c(OCC)c2)C(=O)CNc2nnc(C)s2)ccc1OC(=O)CNc1nnc(C)s1', 'label 1'),
  ('CCC(C)C1NC(=O)C(CCNCS(=O)(=O)O)NC(=O)C(NC(=O)C(CCNCS(=O)(=O)O)NC(=O)C(NC(=O)C(CCNCS(=O)(=O)O)NC(=O)CCCCC(C)C)C(C)O)CCNC(=O)C(C(C)O)NC(=O)C(CCNCS(=O)(=O)O)NC(=O)C(CCNCS(=O)(=O)O)NC(=O)C(C(C)CC)NC1=O (stereo not drawn)', 'label 1');

Answer briefly: the call reported for Nc1nc(Nc2ccccc2SSc2ccccc2Nc2nc(N)nc(-c3cccc(Cl)c3)n2)nc(-c2cccc(Cl)c2)n1 in this assay.
label 0

Answer briefly: the call reported for O=C(/C=C/c1cccc(O)c1)c1cccc(-n2cc(-c3ccccc3)[nH]c2=O)c1 in this assay.
label 0

Answer briefly: the call reported for NS(=O)(=O)c1cc2c(cc1Cl)NC=NS2(=O)=O in this assay.
label 0

Answer briefly: the call reported for C[C@H]1O[C@@H](O[C@H]2[C@@H](O)C[C@H](O[C@H]3[C@@H](O)C[C@H](O[C@H]4CC[C@]5(C)C6C[C@@H](O)[C@]7(C)[C@@H](C8=CC(=O)OC8)CC[C@]7(O)C6CC[C@@H]5C4)O[C@@H]3C)O[C@@H]2C)C[C@H](O)[C@@H]1O (stereo partly drawn) in this assay.
label 1

Answer briefly: the call reported for COc1cc(/C=N/OC(=O)Nc2ccccc2)cc(OC)c1OC in this assay.
label 0

Answer briefly: the call reported for Nc1ccn(C2O[C@H](CO)[C@@H](O)[C@@H]2O)c(=O)n1 (stereo partly drawn) in this assay.
label 0

Answer briefly: the call reported for O=C(Oc1ccccc1)C(Br)C(Br)c1ccccc1 (stereo not drawn) in this assay.
label 0

Answer briefly: the call reported for CC(=O)Nc1c(Cl)cc2c(c1Cl)Cc1cc([N+](=O)[O-])ccc1-2 in this assay.
label 0

----------
- Tested on: UACC-62 melanoma
- EXPERIMENTAL PROTOCOL: NCI-60 one-dose screen, 48 h (100 = growth as untreated, 0 = no growth, -100 = all killed)
- CONDITION: 10 µM unless noted
The panel holds about 83,000 compounds, 20% with a hit somewhere; the sample as a whole holds those more often.
Consider the following compounds; for each one, report its growth.
Give bare numbers, in %.

Some solved entries appear below for comparison.
INSERT INTO assay_data (smiles_data, numeric_value) VALUES
  ('CCN(Cc1cccc(S(=O)(=O)[O-])c1)c1ccc(C(=C2C=CC(=[N+](CC)Cc3cccc(S(=O)(=O)O)c3)C=C2)c2ccccc2S(=O)(=O)O)cc1', 101),
  ('CCN(CC)CCSc1ncnc2c1cnn2-c1ccc(S(N)(=O)=O)cc1', 92.7);

Value lookup for growth; key = C[C@H]1C(=O)N2c3ccccc3[C@@]3(O)C[C@@H](n4cnc5ccccc5c4=O)C(=O)N1[C@@H]23
98.3

----------
- Tested on: NCI-H226 lung
- EXPERIMENTAL PROTOCOL: NCI-60 one-dose screen, 48 h
- CONDITION: 10 µM unless noted
About 83,000 compounds went through this panel and 20% of them were active in at least one assay; those are over-represented in the sample as a whole. Active and inactive are the calls of the source. Rule for the calls: active = growth percent below 10; inactive = the rest.
Choose one outcome from this list and give only that: active, inactive

Take a look at these entries with their results.
INSERT INTO assay_data (compound, assigned_label) VALUES
  ('COc1cccc(C=Nc2cc(C(C)C)c(O)cc2C)c1O', 'inactive'),
  ('C[C@H](C(=O)N[C@@H](Cc1ccc(-c2ccccc2)cc1)C(=O)NC1CC(C)(C)N(C)C(C)(C)C1)c1ccc(-c2ccccc2)c(F)c1', 'active'),
  ('COc1cc2c(cc1OC)C(CC1(O)CCCCC1)N(S(=O)(=O)c1ccc(C)cc1)CC2 (stereo not given)', 'inactive'),
  ('Nc1ccc2c(c1)Cc1cc(Cl)c(Cl)cc1-2', 'inactive');

Answer briefly: the call reported for O[N+]1=CC=CCC1=S.On1ccccc1=S.[Zn] in this assay.
active
